# EC50 annotations
Target: rat mGlu2 receptor (Rattus norvegicus (Rat), UniProt P31421)
Sequence (P31421 19-872): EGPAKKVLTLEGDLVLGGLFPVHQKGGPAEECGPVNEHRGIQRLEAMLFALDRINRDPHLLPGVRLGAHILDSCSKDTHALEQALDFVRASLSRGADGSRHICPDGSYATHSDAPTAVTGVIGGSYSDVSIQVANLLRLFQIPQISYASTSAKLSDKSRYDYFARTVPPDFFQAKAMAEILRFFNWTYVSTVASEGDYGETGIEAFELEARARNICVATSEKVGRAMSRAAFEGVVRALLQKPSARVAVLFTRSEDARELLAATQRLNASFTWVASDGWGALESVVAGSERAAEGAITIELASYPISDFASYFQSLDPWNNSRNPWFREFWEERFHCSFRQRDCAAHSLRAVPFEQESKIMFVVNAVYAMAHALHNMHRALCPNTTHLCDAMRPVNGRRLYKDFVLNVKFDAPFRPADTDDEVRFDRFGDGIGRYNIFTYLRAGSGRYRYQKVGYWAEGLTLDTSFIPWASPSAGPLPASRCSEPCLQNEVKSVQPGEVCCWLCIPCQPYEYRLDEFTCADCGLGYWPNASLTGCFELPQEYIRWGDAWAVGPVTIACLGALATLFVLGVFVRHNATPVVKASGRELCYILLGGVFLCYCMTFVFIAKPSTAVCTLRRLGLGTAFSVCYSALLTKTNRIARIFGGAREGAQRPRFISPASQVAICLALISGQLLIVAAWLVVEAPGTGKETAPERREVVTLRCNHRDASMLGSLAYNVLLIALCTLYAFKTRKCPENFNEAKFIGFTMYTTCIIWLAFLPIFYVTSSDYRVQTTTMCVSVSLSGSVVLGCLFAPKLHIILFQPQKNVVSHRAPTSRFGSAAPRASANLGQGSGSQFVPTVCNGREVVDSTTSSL
Experiment: mGlu2 in vitro GIRK thallium flux assay
Format: cell-based
Details: NAM; 2.5 min compound incubation; EC80 glutamate; HEK-293 GIRK cells; read-out: mGlu2 EC50 (μM) (2.5 min)
Procedure: All cell culture reagents were purchased from Invitrogen Corp. (Carlsbad, Calif.) unless otherwise noted. Compound activity at the group II (mGlu2 and mGlu3) mGlus was assessed using thallium flux through GIRK channels. […] Cell plates and compound plates were loaded onto a kinetic imaging plate reader (FDSS 6000 or 7000; Hamamatsu Corporation, Bridgewater, N.J.). […] Data were analyzed using Excel (Microsoft Corp, Redmond, Wash.). […]
Numeric answer only, unit µM assumed.

Consider the following illustrative entries.
>>> value("O=C(O)c1cc(F)cc(-c2cccc(-c3nsc(-c4ccccc4)n3)c2)c1")
0.4
>>> value("COc1ccc(-c2cccc(-c3csc(-c4ccccc4)n3)c2)cc1C(=O)O")
1.73
>>> value("O=C(O)c1cc(-c2cccc(-c3nsc(-c4ccoc4)n3)c2)ccc1F")
3.63
>>> value("O=C(O)c1cc(-c2ccc(-c3nc(-c4ccc(C(F)(F)F)nc4)cc(C(F)(F)F)n3)cc2)ccc1Cl")
2.95

// below: EC50 requested for another molecule
Recorded EC50 for O=C(O)c1cc(-c2cccc(-c3csc(-c4ccccc4)n3)c2)ccc1F , please?
0.33

###

# EC50 annotations
biological target: rat mGlu2 receptor (Rattus norvegicus (Rat)); assay: mGlu2 in vitro GIRK thallium flux assay; format: cell-based; details: read-out: mGlu2 EC50 (μM) (60 min); NAM; 60 min compound incubation; EC80 glutamate; HEK-293 GIRK cells

Consider the following illustrative entries.
>>> value("O=C1CC(c2ccnc(Cl)c2)=Nc2ccc(-c3ccc(C(F)(F)F)cc3F)cc2N1 [Example 201]")
"0.52 µM"
>>> value("c1ccc(-c2nc(-c3cccc(-c4cccc(-c5nn[nH]n5)c4)c3)cs2)cc1 [Example 37]")
"1.72 µM"
>>> value("Cc1cc2c(cc1C(F)(F)F)NC(=O)CC(c1cccc(Sc3ncccn3)c1)=N2 [Example 136]")
"0.04 µM"
>>> value("Cc1cc(-c2ccoc2)nc(-c2cccc(-c3ccc(F)c(C(=O)O)c3)c2)n1 [Example 117]")
"0.07 µM"
>>> value("Cc1ccc(-c2cc(C(F)(F)F)nc(-c3cccc(-c4ccc(F)c(C(=O)O)c4)c3)n2)s1 [Example 112]")
"0.75 µM"
>>> value("O=C(O)c1cc(-c2cccc(-c3nc(-c4ccco4)cc(C(F)(F)F)n3)c2)ccc1F [Example 88]")
"0.34 µM"
>>> value("Fc1ccc(C#Cc2cccc(-c3nc(-c4ccc(C(F)(F)F)nc4)cc(C(F)(F)F)n3)c2)cc1 [Example 130]")
"> 10 µM"
>>> value("Cc1cc2c(cc1C(F)(F)F)NC(=O)CC(c1cccc(Sc3ncccn3)c1)N2 (single isomer, unassigned) [Example 166B]")
"1.23 µM"
>>> value("O=C(O)c1cccc(-c2cccc(-c3csc(-c4ccc5c(c4)OCCO5)n3)c2)c1 [Example 34]")
"0.28 µM"
>>> value("O=C(O)c1cccc(-c2cccc(-c3nc(-c4ccc(C(F)(F)F)nc4)cc(C(F)(F)F)n3)c2)c1 [Example 69]")
"0.11 µM"

Recorded EC50 for Cc1cc(-c2ccoc2)nc(-c2cccc(-c3cccc(C(=O)O)c3)c2)n1 [Example 119] , please?
0.06 µM

Recorded EC50 for O=C(O)c1cc(-c2cccc(-c3nc(-c4ccc(C(F)(F)F)nc4)cc(C(F)(F)F)n3)c2)cc([N+](=O)[O-])c1 [Example 75] , please?
0.5 µM

Recorded EC50 for COc1ccc(C(=O)O)cc1-c1cccc(-c2nc(-c3ccc(C(F)(F)F)nc3)cc(C(F)(F)F)n2)c1 [Example 77] , please?
0.29 µM

Recorded EC50 for O=C(O)c1ccccc1-c1cccc(-c2nc(-c3ccc(C(F)(F)F)nc3)cc(C(F)(F)F)n2)c1 [Example 72] , please?
> 10 µM

Recorded EC50 for CC(C)(C)c1ccc(-c2cc(C(F)(F)F)nc(-c3cccc(-c4ccc(F)c(C(=O)O)c4)c3)n2)cc1 [Example 96] , please?
1.08 µM

Recorded EC50 for O=C(O)c1cccc(-c2cccc(-c3cc(-c4ccccc4)[nH]n3)c2)c1 [Example 68] , please?
> 30 µM

Recorded EC50 for O=C(O)c1cccc(-c2cccc(-c3cc(-c4ccccc4)sn3)c2)c1 [Example 44] , please?
0.18 µM

Recorded EC50 for Cc1cccc(-c2cc(C(F)(F)F)nc(-c3cccc(-c4ccc(F)c(C(=O)O)c4)c3)n2)c1 [Example 92] , please?
0.4 µM

Recorded EC50 for CSc1ccc(-c2cc(C(F)(F)F)nc(-c3cccc(-c4ccc(F)c(C(=O)O)c4)c3)n2)cc1 [Example 103] , please?
0.99 µM

Recorded EC50 for O=C1CC(c2ccnc(Cl)c2)=Nc2ccc(-c3ccc(Cl)cc3)cc2N1 [Example 186] , please?
1.01 µM

###

target: rat mGlu3 receptor (Rattus norvegicus (Rat)); experiment: mGlu3 in vitro GIRK thallium flux assay; format: cell-based; conditions: NAM; 2.5 min compound incubation; EC80 glutamate; HEK-293 GIRK cells
# EC50 annotations
Numeric answer only, unit µM assumed.

>>> value("N#Cc1cc(C2=Nc3ccc(I)cc3NC(=O)C2)ccn1")
0.07
>>> value("COc1ccc(-c2cccc(-c3csc(-c4ccccc4)n3)c2)cc1C(=O)O")
1.77
>>> value("O=C(O)c1cc(-c2cccc(-c3csc(-c4ccccc4)n3)c2)ccc1F")
1.21
>>> value("COc1ccc(-c2cc(C(F)(F)F)nc(-c3cccc(-c4ccc(F)c(C(=O)O)c4)c3)n2)cn1")
1.41
>>> value("COc1ccc(-c2cc(C(F)(F)F)nc(-c3cccc(-c4ccc(F)c(C(=O)O)c4)c3)n2)cc1")
1
>>> value("O=C1CC(c2ccnc(Cl)c2)=Nc2ccc(-c3ccc(C(F)(F)F)cc3F)cc2N1")
1.61

Recorded EC50 for O=C(O)c1cc(F)cc(-c2ccc(-c3nc(-c4ccc(C(F)(F)F)nc4)cc(C(F)(F)F)n3)cc2)c1 , please?
4.91

###

molecular target: rat mGlu3 receptor (Rattus norvegicus (Rat), UniProt P31422); assay: mGlu3 in vitro GIRK thallium flux assay; format: cell-based; conditions: NAM; 2.5 min compound incubation; EC80 glutamate; HEK-293 GIRK cells
Sequence (P31422 23-879): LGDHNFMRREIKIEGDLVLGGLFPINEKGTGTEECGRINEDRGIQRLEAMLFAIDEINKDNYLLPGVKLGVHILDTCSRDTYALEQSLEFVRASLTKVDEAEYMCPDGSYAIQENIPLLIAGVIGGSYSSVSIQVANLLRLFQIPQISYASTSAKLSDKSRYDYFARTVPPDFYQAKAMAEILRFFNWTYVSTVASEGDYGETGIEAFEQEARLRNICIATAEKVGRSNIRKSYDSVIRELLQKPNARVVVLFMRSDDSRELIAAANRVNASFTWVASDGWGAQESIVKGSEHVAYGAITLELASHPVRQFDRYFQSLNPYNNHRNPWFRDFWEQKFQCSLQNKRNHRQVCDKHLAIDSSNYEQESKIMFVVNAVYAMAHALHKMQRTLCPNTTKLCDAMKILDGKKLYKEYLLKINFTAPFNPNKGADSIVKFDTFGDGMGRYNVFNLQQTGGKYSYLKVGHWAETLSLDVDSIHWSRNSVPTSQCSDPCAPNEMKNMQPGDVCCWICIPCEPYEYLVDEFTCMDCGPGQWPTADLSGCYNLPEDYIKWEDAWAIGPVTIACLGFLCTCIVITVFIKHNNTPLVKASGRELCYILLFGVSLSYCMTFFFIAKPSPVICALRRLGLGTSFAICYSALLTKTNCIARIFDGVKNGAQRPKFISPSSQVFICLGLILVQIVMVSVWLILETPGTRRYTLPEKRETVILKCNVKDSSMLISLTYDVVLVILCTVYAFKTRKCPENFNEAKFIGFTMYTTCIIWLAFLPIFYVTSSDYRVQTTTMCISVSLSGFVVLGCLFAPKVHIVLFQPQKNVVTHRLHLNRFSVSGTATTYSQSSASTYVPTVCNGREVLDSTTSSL
Value Type: EC50

Recorded EC50 for O=C(O)c1cc(-c2cccc(-c3nc(-c4ccsc4)cc(C(F)(F)F)n3)c2)ccc1F [Example 122] , please?
0.53 µM

###

# EC50 annotations
target: rat mGlu2 receptor (Rattus norvegicus (Rat)); assay: mGlu2 in vitro GIRK thallium flux assay; type: cell-based; details: mGlu2 EC50 (μM) (60 min), NAM; 60 min compound incubation; EC80 glutamate; HEK-293 GIRK cells

Consider the following illustrative entries.
>>> value("COc1ccc(C(=O)O)cc1-c1cccc(-c2csc(-c3ccccc3)n2)c1")
"1.35 µM"
>>> value("N#Cc1cc(C2CC(=O)Nc3cc(C(=O)O)ccc3N2)ccn1 (racemic)")
"> 30 µM"
>>> value("Cc1cc2c(cc1C(F)(F)F)NC(=O)CC(c1cccc(CCC(=O)O)c1)N2 (single isomer, unassigned) [Example 155B]")
"> 10 µM"

// below: EC50 requested for another compound
Recall the recorded EC50 for O=C(O)c1cc(-c2ccc(-c3csc(-c4ccccc4)n3)s2)ccc1F with rat mGlu2 receptor (Rattus norvegicus (Rat)) and state it.
> 10 µM

###

biological target: rat mGlu2 receptor (Rattus norvegicus (Rat)); assay: mGlu2 in vitro GIRK thallium flux assay; type: cell-based; details: mGlu2 EC50 (μM) (60 min), NAM; 60 min compound incubation; EC80 glutamate; HEK-293 GIRK cells
Value Type: EC50 (µM)
Numeric answer only, unit µM assumed.

Consider the following illustrative entries.
>>> value("Cc1cc(-c2cccc(C3CC(=O)Nc4cc(C(F)(F)F)c(C)cc4N3)c2)cc(C)n1 (racemic)")
3.7
>>> value("O=C(O)c1cc(-c2cccc(-c3nsc(-c4ccoc4)n3)c2)ccc1F")
3.71
>>> value("COc1ccc(-c2nc(-c3cccc(-c4cccc(C(=O)O)c4)c3)cs2)cc1OC")
1.1

// below: EC50 requested for another compound
Recorded EC50 for O=C(O)c1cc(F)cc(-c2cccc(-c3nsc(-c4ccoc4)n3)c2)c1 , please?
0.11

###

target: rat mGlu2 receptor (Rattus norvegicus (Rat), UniProt P31421); assay: mGlu2 in vitro GIRK thallium flux assay; type: cell-based; conditions: NAM; 2.5 min compound incubation; EC80 glutamate; HEK-293 GIRK cells; read-out: mGlu2 EC50 (μM) (2.5 min)
# EC50 annotations
Numeric answer only, unit µM assumed.

Consider the following illustrative entries.
>>> value("O=C(O)c1cccc(-c2cccc(-c3nc(-c4ccc(C(F)(F)F)nc4)cc(C(F)(F)F)n3)c2)c1")
0.95
>>> value("O=C(O)c1cc(-c2cccc(-c3nc(-c4ccc(C(F)(F)F)nc4)cc(C(F)(F)F)n3)c2)cc([N+](=O)[O-])c1")
1.27

// below: EC50 requested for another compound
Recorded EC50 for O=C(O)c1cc(-c2cccc(-c3nc(-c4cccnc4F)cc(C(F)(F)F)n3)c2)ccc1F , please?
1.07
